Reference source for all entries: patent US20130324412A1

System: lambsquarters (Chenopodium album)
PROTOCOL TEXT: General postemergence herbicidal activity, lambsquarters
Assay type: in vivo
CONDITION DESCRIPTION: post-emergence, 336 h, 140 g ai/ha, postemergence, after 14 d, 0 = no injury, 100 = complete kill, read-out: CHEAL % Visual Injury
Below, each entry is listed alongside its reported pest or weed control at 140 g/ha.
METRIC NAME: pest or weed control at 140 g/ha (%)

- MOLECULE: "C=CCON(C(C)=O)C(=O)c1nc(-c2ccc(Cl)c(OC)c2F)nc(N)c1C=C [Compound 9]"
  METRIC NAME: "pest or weed control at 140 g/ha"
  MEASURED RESULT: 100
- MOLECULE: "CC/C=C/CONC(=O)c1nc(-c2ccc(Cl)c(OC)c2F)cc(N)c1Cl [Compound 45]"
  METRIC NAME: "pest or weed control at 140 g/ha"
  MEASURED RESULT: 100
- MOLECULE: "COc1c(Cl)ccc(-c2cc(N)c(Cl)c(C(=O)NOCc3ccoc3)n2)c1F [Compound 43]"
  METRIC NAME: "pest or weed control at 140 g/ha"
  MEASURED RESULT: 100
- MOLECULE: "C=CCONC(=O)c1nc(-c2ccc(Cl)c(OC)c2F)nc(N)c1C=C [Compound 10]"
  METRIC NAME: "pest or weed control at 140 g/ha"
  MEASURED RESULT: 85
- MOLECULE: "COc1c(Cl)ccc(-c2cc(N)c(Cl)c(C(=O)NOC(C)(C)C)n2)c1F [Compound 21]"
  METRIC NAME: "pest or weed control at 140 g/ha"
  MEASURED RESULT: 95
- MOLECULE: "C=CCONC(=O)c1nc(-c2ccc(Cl)c(OC)c2F)nc(N)c1OC [Compound 35]"
  METRIC NAME: "pest or weed control at 140 g/ha"
  MEASURED RESULT: 100
- MOLECULE: "C=CCON(C)C(=O)c1nc(-c2ccc(Cl)c(OC)c2F)cc(N)c1Cl [Compound 26]"
  METRIC NAME: "pest or weed control at 140 g/ha"
  MEASURED RESULT: 100
- MOLECULE: "COc1c(Cl)ccc(-c2cc(N)c(Cl)c(C(=O)NOC3C=CCCC3)n2)c1F (stereo not drawn) [Compound 18]"
  METRIC NAME: "pest or weed control at 140 g/ha"
  MEASURED RESULT: 100
- MOLECULE: "C=CCONC(=O)c1nc(-c2ccc(Cl)c(OC)c2F)cc(N)c1Cl [Compound 3]"
  METRIC NAME: "pest or weed control at 140 g/ha"
  MEASURED RESULT: 100

* * *

Test system: lambsquarters (Chenopodium album)
PROTOCOL TEXT: General postemergence herbicidal activity, lambsquarters
Assay type: in vivo
CONDITION DESCRIPTION: post-emergence, 336 h, 140 g ai/ha, postemergence, after 14 d, 0 = no injury, 100 = complete kill, read-out: CHEAL % Visual Injury

- COMPOUND: "COc1c(Cl)ccc(-c2cc(N)c(Cl)c(C(=O)N3CCCO3)n2)c1F"
  TESTED TARGET: "lambsquarters (Chenopodium album)"
  pest or weed control at 140 g/ha [%]: 100
- COMPOUND: "COc1c(Cl)ccc(-c2cc(N)c(Cl)c(C(=O)NOCC3=CCCCC3)n2)c1F"
  TESTED TARGET: "lambsquarters (Chenopodium album)"
  pest or weed control at 140 g/ha [%]: 98
- COMPOUND: "COc1c(Cl)ccc(-c2nc(C(=O)NOC3CCCCO3)c(Cl)c(N)c2F)c1F (centres unmarked)"
  TESTED TARGET: "lambsquarters (Chenopodium album)"
  pest or weed control at 140 g/ha [%]: 100
- COMPOUND: "CCONC(=O)c1nc(-c2ccc(Cl)c(OC)c2F)cc(N)c1Cl"
  TESTED TARGET: "lambsquarters (Chenopodium album)"
  pest or weed control at 140 g/ha [%]: 100
- COMPOUND: "C=CCONC(=O)c1nc(C2CC2)nc(N)c1Cl"
  TESTED TARGET: "lambsquarters (Chenopodium album)"
  pest or weed control at 140 g/ha [%]: 100
